Tested on: OVCAR-3 ovarian
Assay: NCI-60 one-dose screen, 48 h (100 = growth as untreated, 0 = no growth, -100 = all killed)
Settings: 10 µM unless noted
Compounds without any hit were thinned out: in the full panel of roughly 83,000, 20% have a hit.
Form field: growth (one value per entry).
measuredEndpoint: growth (%)

[
  {
    "molecule": "COc1ccc(C(=O)C(CN(C)C)c2ccc(OC)cc2)cc1 (stereo unspecified)",
    "measuredEndpoint": "growth",
    "numericReadout": -4.36
  },
  {
    "molecule": "CS(=O)(=O)c1ccc(C(=O)N/N=C/c2cccc3ccccc23)cc1",
    "measuredEndpoint": "growth",
    "numericReadout": 67.8
  },
  {
    "molecule": "OC(COCc1ccccc1)COCc1ccccc1",
    "measuredEndpoint": "growth",
    "numericReadout": 94.7
  },
  {
    "molecule": "O=C1/C(=C/c2cc(F)cc(F)c2)Cc2cc(F)cc(F)c21",
    "measuredEndpoint": "growth",
    "numericReadout": 94.9
  },
  {
    "molecule": "O=C(Nc1ccc(Br)cc1)Nc1cccc(Br)c1",
    "measuredEndpoint": "growth",
    "numericReadout": 16.2
  },
  {
    "molecule": "COC1(OC)C2(Cl)CCC1(Cl)C(Cl)=C2Cl",
    "measuredEndpoint": "growth",
    "numericReadout": 112
  }
]

---

Test system: NCI-H460 lung
Assay: NCI-60 one-dose screen, 48 h (100 = growth as untreated, 0 = no growth, -100 = all killed)
Conditions: 10 µM unless noted
The panel holds about 83,000 compounds, 20% with a hit somewhere; the sample as a whole holds those more often. The source made the active and inactive calls. Rule for the calls: active = growth percent below 10; inactive = the rest.

[
  {
    "compound": "CC1=CCC2C1CC=C(C)C(CC[C@H]1[C@@](C)(O)CCC3OC(C)(C)[C@H](OC(=O)c4ccccc4)CC[C@@]31C)C2(C)C (some centres undefined)",
    "growth": "97.1% (inactive)"
  },
  {
    "compound": "Cc1ccc(NC(=O)c2cc(NCc3cc(O)ccc3O)ccc2O)cc1",
    "growth": "102% (inactive)"
  },
  {
    "compound": "CC(C)c1ccc2c(c1)CCC1C2CCCC1(C)NCc1ccccc1 (centres undefined)",
    "growth": "71.3% (inactive)"
  },
  {
    "compound": "CC(C)[C@@H]1C=C2CC[C@H]3[C@](C)(CN)CCC[C@]3(C)[C@H]2CC1",
    "growth": "-69.7% (active)"
  },
  {
    "compound": "CN1C(=O)C(C2=NNC(c3ccccc3C(=O)O)C2)C(=O)N(C)C1=O (centres undefined)",
    "growth": "106% (inactive)"
  },
  {
    "compound": "C=C1C(=O)O[C@H]2[C@H]1CC/C(COC(=O)NCc1ccc(Cn3c(=O)sn(CCCl)c3=O)cc1)=C\\CC[C@@]1(C)O[C@@H]21",
    "growth": "97.8% (inactive)"
  },
  {
    "compound": "ClC1(Cl)C2CCCCCCC21 (centres undefined)",
    "growth": "107% (inactive)"
  },
  {
    "compound": "Cc1c(C(N)=O)sc2ncn(CC(=O)NN=C3CCCCC3)c(=O)c12",
    "growth": "115% (inactive)"
  },
  {
    "compound": "C=CCN1C(=O)/C(=c2\\sc3n(c2=O)C2C(NN=3)N(CC)C(=O)N2CC)c2ccccc21 (centres undefined)",
    "growth": "9.1% (active)"
  }
]

---

System: U251 CNS
Assay: NCI-60 one-dose screen, 48 h (100 = growth as untreated, 0 = no growth, -100 = all killed)
Conditions: 10 µM unless noted
The panel holds about 83,000 compounds, 20% with a hit somewhere; the sample as a whole holds those more often.
Form field: growth (one value per entry).

[
  {
    "molecule": "CCCCCCCCCCCCCCCCCC(=O)OCCCCCCCCCCCCC",
    "growth, %": 108
  },
  {
    "molecule": "CC(NC(=O)c1ccccc1)C(=O)Nc1ccccc1 (stereo not given)",
    "growth, %": 101
  },
  {
    "molecule": "COC(=O)CSc1ccc(Cl)cc1",
    "growth, %": 103
  },
  {
    "molecule": "COc1cc2ncnc(Nc3ccc(S(=O)(=O)Nc4nccs4)cc3)c2cc1OCCCN1CCOCC1",
    "growth, %": 100
  },
  {
    "molecule": "CC(C)(C)[Si](C)(C)OC1[C@@H](O[Si](C)(C)C(C)(C)C)[C@@H](CNC(=O)NC(=O)NC(=O)CCl)O[C@H]1n1cnc2c(NC(=O)Nc3ccccc3)ncnc21 (stereo not given in full)",
    "growth, %": 29.7
  },
  {
    "molecule": "Cc1ccc2c(C)c3c(ccc4ccccc43)c[n+]2c1",
    "growth, %": 24.5
  },
  {
    "molecule": "Cc1ccccc1C1CC(=O)c2ccccc2C1C (stereo not given)",
    "growth, %": 88.5
  },
  {
    "molecule": "CC(C)(C)OC(=O)N1CCCN(CCNc2nccc(-c3c(-c4cccc(O)c4)nc4sccn34)n2)S1(=O)=O",
    "growth, %": 117
  },
  {
    "molecule": "O=C(NCCN1CCCCC1)n1cc(-c2ccncc2)c(-c2ccc(Cl)c(O)c2)n1",
    "growth, %": 98.5
  },
  {
    "molecule": "COc1ccc(-c2cc(-c3ccc(OC)cc3)c3sc(=O)[nH]c3n2)cc1",
    "growth, %": 72.6
  }
]

---

Test system: SF-268 CNS
Experiment: NCI-60 one-dose screen, 48 h (100 = growth as untreated, 0 = no growth, -100 = all killed)
Details: 10 µM unless noted
Compounds without any hit were thinned out: in the full panel of roughly 83,000, 20% have a hit.

[
  {
    "compound": "COC(=O)c1ccc2c(c1)nc(-c1ccc(Cl)cc1)n2-c1cc(C(C)(C)C)[nH]n1",
    "growth / %": 68.5
  },
  {
    "compound": "CCCCCCCCCCCCC1CCC(=O)O1 (stereo not given)",
    "growth / %": 97.1
  },
  {
    "compound": "CCN(CC)CCNC(=O)n1cc(-c2ccncc2)c(-c2ccc(Cl)c(OC)c2)n1",
    "growth / %": 67.9
  },
  {
    "compound": "COc1cc(CN2CCC(N3CCCC3=O)c3ccccc32)cc(OC)c1OC (stereo not given)",
    "growth / %": 91.6
  },
  {
    "compound": "CN1C(=O)C(C2=NNC(c3ccccc3C(=O)O)C2)C(=O)N(C)C1=O (stereo not given)",
    "growth / %": 98.8
  },
  {
    "compound": "O=C(Nc1ccc(Br)cc1)Nc1cccc(Br)c1",
    "growth / %": 69
  },
  {
    "compound": "CNC(=O)c1c(NC(=O)c2ccc(C(C)C)cc2)sc2c1CCC(=O)C2",
    "growth / %": 15.3
  },
  {
    "compound": "FC(F)(F)c1nn[nH]n1",
    "growth / %": 94.5
  },
  {
    "compound": "CCCCOc1nc2ccc(C)cc2cc1/C=C/C(=O)/C=C(O)/C=C/c1cc2cc(C)ccc2nc1OCCCC",
    "growth / %": 103
  },
  {
    "compound": "Cc1ccc(C)c(NC(=O)c2sc3c(=O)[nH]cnc3c2C)c1",
    "growth / %": 101
  },
  {
    "compound": "O=C1/C=C/[C@@H](O)[C@@H]2C[C@@H](O)C[C@H]2/C=C/CCC[C@H]([C@@H](O)CO)O1",
    "growth / %": 60.8
  },
  {
    "compound": "CN(C)CCCn1c(=O)c2cc([N+](=O)[O-])ccc2c2cnc3[nH]ccc3c21",
    "growth / %": 45.9
  },
  {
    "compound": "CN(C)c1nc(-c2ccco2)n2nc(-c3ccc(Cl)cc3)cc2n1",
    "growth / %": 66.6
  },
  {
    "compound": "O=C(c1ccccc1)C(CCc1ccccn1)CCc1ccccn1",
    "growth / %": 101
  },
  {
    "compound": "C=C(C)[C@@H]1CC[C@]2(C(=O)NS(=O)(=O)c3ccccc3)CC[C@]3(C)[C@H](CC[C@@H]4[C@@]5(C)CC[C@H](OC(=O)NS(=O)(=O)c6ccccc6)C(C)(C)[C@@H]5CC[C@]43C)[C@@H]12",
    "growth / %": 41.4
  },
  {
    "compound": "CCCCOC(=O)c1cc(O)c(O)c(O)c1",
    "growth / %": 53.5
  },
  {
    "compound": "C=C1C(=O)O[C@H]2[C@H]1CC/C(COC(=O)NCc1[nH]nc3ccccc13)=C\\CC[C@@]1(C)O[C@@H]21",
    "growth / %": 55.2
  },
  {
    "compound": "CC(C)N(C(=S)SSC(=S)N(C(C)C)C(C)C)C(C)C",
    "growth / %": 103
  },
  {
    "compound": "COc1ccc(Oc2nc(Nc3ccc(N4CCOCC4)cc3)ncc2NC(=O)Nc2cccc(OC)c2)cc1",
    "growth / %": 74.4
  },
  {
    "compound": "CNCCCn1c2c(c3ccc(Cl)cc3c1=O)C(=O)c1cc(OC)cnc1-2",
    "growth / %": 34.7
  }
]
